# reported IC50; entries follow
target: HER2 YVMA (Homo sapiens, UniProt P04626, INS775YVMA); construct: expressed in transfected cells; host or cells: BaF3 (murine pro-B); test: BaF3 cell proliferation assay, HER2 YVMA (Table B); assay type: cell-based; conditions: potency code, 3 days, CellTiterGlo, read-out: HER2 YVMA (Activity for Inhibiting HER2)
Sequence (P04626 with tags, fused parts or gaps INS775YVMA): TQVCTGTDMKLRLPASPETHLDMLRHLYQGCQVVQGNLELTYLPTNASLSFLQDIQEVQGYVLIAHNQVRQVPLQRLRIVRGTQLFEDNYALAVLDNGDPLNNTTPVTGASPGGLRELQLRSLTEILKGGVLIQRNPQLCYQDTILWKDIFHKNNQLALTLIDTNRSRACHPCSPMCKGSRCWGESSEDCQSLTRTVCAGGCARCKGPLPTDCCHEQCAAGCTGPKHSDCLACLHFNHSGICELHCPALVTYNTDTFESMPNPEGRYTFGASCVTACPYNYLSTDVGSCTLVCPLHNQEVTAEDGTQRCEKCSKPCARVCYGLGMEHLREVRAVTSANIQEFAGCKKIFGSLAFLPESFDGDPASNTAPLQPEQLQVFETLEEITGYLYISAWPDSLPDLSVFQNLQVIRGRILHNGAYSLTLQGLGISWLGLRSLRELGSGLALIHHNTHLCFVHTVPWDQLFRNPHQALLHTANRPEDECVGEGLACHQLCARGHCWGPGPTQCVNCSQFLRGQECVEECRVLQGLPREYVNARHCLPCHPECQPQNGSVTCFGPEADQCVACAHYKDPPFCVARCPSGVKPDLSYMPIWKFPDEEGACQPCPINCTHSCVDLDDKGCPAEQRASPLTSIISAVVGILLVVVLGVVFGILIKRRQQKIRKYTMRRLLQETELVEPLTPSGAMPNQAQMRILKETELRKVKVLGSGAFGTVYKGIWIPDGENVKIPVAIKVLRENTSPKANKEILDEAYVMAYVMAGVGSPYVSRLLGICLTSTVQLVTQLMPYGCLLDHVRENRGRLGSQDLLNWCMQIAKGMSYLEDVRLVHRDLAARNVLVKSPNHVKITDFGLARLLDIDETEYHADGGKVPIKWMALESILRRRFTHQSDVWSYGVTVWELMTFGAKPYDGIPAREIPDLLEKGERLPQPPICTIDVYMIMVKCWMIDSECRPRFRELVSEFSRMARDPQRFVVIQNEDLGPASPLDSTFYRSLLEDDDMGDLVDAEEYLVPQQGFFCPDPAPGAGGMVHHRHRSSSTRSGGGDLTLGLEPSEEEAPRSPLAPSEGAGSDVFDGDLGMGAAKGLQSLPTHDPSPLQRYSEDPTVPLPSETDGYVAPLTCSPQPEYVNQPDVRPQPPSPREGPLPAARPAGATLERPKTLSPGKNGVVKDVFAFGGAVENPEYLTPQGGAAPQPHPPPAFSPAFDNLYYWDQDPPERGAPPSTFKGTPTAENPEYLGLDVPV

Example results:
C=CC(=O)Nc1cc2c(Nc3ccc(OCc4ccccn4)c(Cl)c3)ncnc2cc1OCCN(C)C    100 to 200 nM
C=CC(=O)Nc1cc2c(Nc3ccc(OCc4ccccn4)cc3)ncnc2cc1OCC1COCCN1 (stereo not shown)    > 1000 nM
C=CC(=O)Nc1cc2c(Nc3ccc(OCc4ccccn4)c(Cl)c3)ncnc2cc1O[C@H]1CCN(C)C1    50 to 100 nM
C=CC(=O)Nc1cc2c(Nc3ccc(OCc4ccccn4)c(Cl)c3)ncnc2cc1N1CC2(CN(C)C2)C1    > 1000 nM
C=CC(=O)Nc1cc2c(Nc3ccc(OCc4ccccn4)c(Cl)c3)ncnc2cc1OC[C@H]1COCCN1    100 to 200 nM

# IC50 (compound: `C=CC(=O)Nc1cc2c(Nc3ccc(OCc4ccccn4)c(Cl)c3)ncnc2cc1OCCN1CCN(C)CC1` ) is 20 to 30 nM

# IC50 (compound: `C=CC(=O)Nc1cc2c(Nc3ccc(OCc4ccccn4)c(Cl)c3)ncnc2cc1OCC1(N)CC1` ) is 200 to 300 nM

# IC50 (compound: `C=CC(=O)Nc1cc2c(Nc3ccc(OCc4cccc(F)n4)c(Cl)c3)ncnc2cc1OCCCN1C[C@H]2C[C@@H]1CO2` ) is 100 to 200 nM
